Attribution: the kinase profiling compilation of Christmann-Franck et al. (2016)

- experimental-system: MAP3K3 (human)
- assay-procedure: KINOMEscan competition binding
- measurement-setup: compound 10.0 µM

compound	experimental-system	readout-units	kinase still bound, per cent of control
COc1cc(C(=O)NC2CCN(C)CC2)ccc1Nc1ncc2c(n1)N(C1CCCC1)C(C)CC(=O)N2C (centres undefined)	MAP3K3 (human)	%	100
Cc1cc([C@@H](C)Nc2ccccc2C(=O)O)c2nc(N3CCOCC3)cc(=O)n2c1	MAP3K3 (human)	%	87
C=CC(=O)Nc1cccc(Oc2nc(Nc3ccc(N4CCN(C)CC4)cc3OC)ncc2Cl)c1	MAP3K3 (human)	%	100
OCCCNc1cc(-c2ccnc(Nc3cccc(Cl)c3)n2)ccn1	MAP3K3 (human)	%	100
Nc1ccc(-c2ccc3ncc4ccc(=O)n(-c5cccc(C(F)(F)F)c5)c4c3c2)cn1	MAP3K3 (human)	%	84
COc1cc(C(=O)NC2CCN(C)CC2)ccc1Nc1ncc2c(n1)N(C1CCCC1)CCC(=O)N2C(C)C	MAP3K3 (human)	%	100
CN(C)C/C=C/C(=O)Nc1cccc(Nc2ncc3c(n2)N(C)c2ccccc2C(=O)N3C)c1	MAP3K3 (human)	%	0.1
COc1cc(N2CCN(C)CC2)ccc1Nc1nc(N)c(C(=O)c2c(Cl)cccc2Cl)s1	MAP3K3 (human)	%	76
O=C(NC1CC1)c1cccc(-c2ccc3c(NC(=O)C4CC4)n[nH]c3c2)c1	MAP3K3 (human)	%	85
C[C@@H](Oc1cc(-n2cnc3ccc(CN4CCN(C)CC4)cc32)sc1C(N)=O)c1ccccc1C(F)(F)F	MAP3K3 (human)	%	88
CC[C@@H]1C(=O)N(C)c2cnc(Nc3ccc(C(=O)NC4CCN(C)CC4)cc3OC)nc2N1C1CCCC1	MAP3K3 (human)	%	100
CCC(=O)N1CCN(c2ccc(-n3c(=O)ccc4cnc5ccc(-c6cnc7ccccc7c6)cc5c43)cc2C(F)(F)F)CC1	MAP3K3 (human)	%	75
N#Cc1c(NC(=O)c2cccc3ccccc23)sc2c1CCCC2	MAP3K3 (human)	%	96
CCOc1cc2ncc(C#N)c(Nc3ccc(OCc4ccccn4)c(Cl)c3)c2cc1NC(=O)/C=C/CN(C)C	MAP3K3 (human)	%	3.8
CCN1CCN(Cc2ccc(Nc3ncc4c(n3)N(C)c3ccccc3C(=O)N4C)cc2C(F)(F)F)CC1	MAP3K3 (human)	%	0.65
Cc1ccc(C(=O)Nc2cccc(C(F)(F)F)c2)cc1Nc1cncc(C(N)=O)c1	MAP3K3 (human)	%	100
Cc1ccc(NC(=O)c2cccc(C(C)(C)C#N)c2)cc1Nc1ccc2ncn(C)c(=O)c2c1	MAP3K3 (human)	%	100
O=C(NOC[C@H](O)CO)c1ccc(F)c(F)c1Nc1ccc(I)cc1F	MAP3K3 (human)	%	98
CCCS(=O)(=O)Nc1ccc(F)c(C(=O)c2c[nH]c3ncc(-c4ccc(Cl)cc4)cc23)c1F	MAP3K3 (human)	%	82
